// data source = paper PMC11947346

- assayComment: in vivo
- assayConditions: NMRI, mouse, kidneys, total radioactivity, activity uptake in kidneys, NMRI mice, 30 min pi, 40 pmol, blocked: co-injected with 5 nmol NOTA-PEG2-RM26, mean ± SD, n = 3

compound	tissue uptake at 0.5 h (%ID/g)
CC1=NNC(c2ccc(CNC(=O)c3ccc(F)nc3)cc2)=C2CCC[C@H](OC(=O)NCCOCCOCCC(=O)N[C@H](Cc3ccccc3)C(=O)N[C@@H](CCC(N)=O)C(=O)N[C@@H](Cc3c[nH]c4ccccc34)C(=O)N[C@@H](C)C(=O)N[C@H](C(=O)NCC(=O)N[C@@H](Cc3c[nH]cn3)C(=O)N[C@@H](CC(C)C)[C@@H](O)CC(=O)N[C@@H](CC(C)C)C(N)=O)C(C)C)CCC12 (stereo partly shown) [8a]	3.1
